# Test system: MS2 coat protein
# experiment.description: apparent Kd, MS2 coat protein; higher = weaker binding; RNA-MaP array; FMN 200 µM where present
# applied.conditions: ligand present: flavin mononucleotide; designed as: ON switch for flavin mononucleotide
Each record here notes measured apparent Kd.
metric.name: apparent Kd (nM)

• GGAGCUACAACCGACGGAUAGAUGCAGGAUAUGCUCACAUGAGGAUCACCCAUGUGCUGAAACUGGCAGAAGGGUAUCACCGCC = 4.59
• UACAUUAACAUGAGGAUCACCCAUGUUGGCCAGUCUCACACCAGAAGGCACGUAGAGCACAACAGUGAGGAUAUGGGUGACAUA = 98.7
• UGCGUACAAGCAAACAUGAGGAUCACCCAUGUGGUCUCAUGCGAGGAUAUCGGGAAGGAGGAUUCCGAGAAGGUGCGGUGAGCC = 27.9
• GACUGAUUGUAGAAGGUACUUGACUAUAUAUUUUAUUCAUAUAGACAUGAGGAUCACCCAUGUAGUAAGGAUAUACUUUUAACA = 6
• GCCAUCGUAUGAGGAUAUGGCACCGAAACGGUGCCAGAAGGCAUGUCAAUAGACAUGAGGAUCACCCAUGUGUUAUCGAUGGCC = 11.7
• GUGCCUAACUAGAAGGCCGAUAGCAAAGCUAUCGGAGGAUAUGGGUUCCGGAAACGGACAUGAGGAUCACCCAUGUGGCACAAA = 12.8
• UUCUAGCUCACAGGAUAUGGGUAUCGACGAUGCCCAGAAGGGUGAUUUGGCACAUGAGGAUCACCCAUGUGGGCGCUUGAAUAU = 98
• GGGUACAUCGGAGGAUAUCAUGUAAAUACAUGAGGAUCACCCAUGUCGAUGGUGACAUCGGAGAUUGAGAAGGCCGAUGUACCG = 9.37
• GGACGUGACAUUAACAUGAGGAUCACCCAUGUCAAAAGACAUGAGGAUAUGGAUCCGAAAAGGAUCCAGAAGGCAUGCACGUCC = 37.1
• AUAUGAUAGAUAGGAUAUACUAUGGUUGAAGAAGUAGAAGGAUCAAUAGGGAAAUGUACAUGAGGAUCACCCAUGUUAUGGAUU = 26.9
• UGUUACUAGUAAGGAUAUACUUGCAAUUAGCUUGUAGAAGGUACAGUCUUUUGUAUAACAUGUUUACAUGAGGAUCACCCAUGU = 9.05
• GCAGCACACAUUAACAUGAGGAUCACCCAUGUCAAAAGACAUGAGGAUAUGCAUCUGAAGAAGAUGCAGAAGGCAUUGUGCUGC = 24.2
• GUAUAUAUGAGGUAGGAUAUCCAAAAUAAAACAUGAGGAUCACCCAUGUAAAUAAAUAAUAAAUGGGAGAAGGACCACAUAUAUAC = 13.8
• GAAUUCGCAUGAGGAUAUGCACUCAUUUCAUGUGCAGAAGGUAUAUCAUUAGACAUGAGGAUCACCCAUGUAUUGGUCAUUAAC = 14

----------
# Tested on: MS2 coat protein
# experiment.description: apparent Kd, MS2 coat protein; higher = weaker binding; RNA-MaP array; tryptophan 2.4 mM where present
# applied.conditions: designed as: ON switch for tryptophan; no ligand
Where apparent Kd equals or exceeds 0.2 µM, the correct label is label 1; where it does not, the label is label 0.

• CUACAUUUGUAGAAACCGGUCAACAAUAAUCGAGGACCGGUACGGCCGCCACUCGAUGUAAAAUAAACAUGAGGAUCACCCAUGU = label 0
• UGGGUCGGAUGAGUAAAUUGUCGGACUCAUCGAGGACCGGUACGGCCGCCACUCGGUUGUACAUGAGGAUCACCCAUGUCAGGGU = label 1
• UAUGAGCGCACGGCCGCCACUGUCUUCAUCUGUUUGUCUACAUGAGGAUCACCCAUGUUGGUUUACAGGACCGGGUGCAACUAUG = label 0
• GACGCAUGAGUUGUAAAAGCUCAUGGGUCGCGAGGACCGGUACGGCCGCCACUCGGCUGUACAUGAGGAUCACCCAUGUCAGGGU = label 1
• ACGUUGUAGUCGGCCGCCACUGUUUUCAUGUUCAACAUGAGGAUCACCCAUGUACCUUUUUUUAUCAGGACCGGGACGUAUUCGA = label 0
• AAUUAUCAGUCGGCCGCCACUGACACAUGAGGAUCACCCAUGUAAUAUGGGUAAAAUUAACUGAACAGGACCGGGACAAAUGCUA = label 1
• GCAUCCUAGUCGGCCGCCACUGCAACAUGAGGAUCACCCAUGUCUGCAUCUUCAUGAUGCAGUAGCAGGACCGGGACUAGGAUGC = label 0
• GGCACAUAGUCGGCCGCCACUACUAACACCUCAGACAACAUGAGGAUCACCCAUGUUCCAGAGUGUAGGACCGGGACUAUGUGCC = label 0
• GGUUACUCUACGGCCGCCACUGAUUAUUUAUAGUCCUGUACAUAAACAUGAGGAUCACCCAUGUACAGGACCGGGUAGUGUAACC = label 0
• AGCACAUGAGGAUCACCCAUGUGUCGGUACCGAGGACCGGUACGGCCGCCACUCGCAGGACAUGAGGAUCACCCAUGUGCCGCCG = label 0
• GUCGGUACGUCGGCAAAGCCGAUGUGCCAGCGAGGACCGGUACGGCCGCCACUCGUACAUGAGGAUCACCCAUGUCCGGUCCGGC = label 0
• AACACAUGAGGAUCACCCAUGUUCUCGUGUCGAGGACCGGUACGGCCGCCACUCGGUUCUCGCGAGGAUGGUCAAAGACUAUCCA = label 0
• UACAUGAGGAUCACCCAUGUCCCAUGUGAACGAGGACCGGUACGGCCGCCACUCGACCGAGGCGGCACAUGAGGAUCACCCGCAU = label 1
• GCUAGGUCAUCGGCCGCCACUAACGAUGGCUCCAACAUGAGGAUCACCCAUGUGCCACAUGCGCAUAGGACCGGGAUGACCUAGC = label 0
• UAAACUACACAUGAGGAUCACCCAUGUGGCCGAGGACCGGUACGGCCGCCACUCGUGUGUUAAUAAAAGAACUGCAAGGUUCUGU = label 1
• GCAUCCUAGUCGGCCGCCACUGCAACAUGAGGAUCACCCAUGUCAGGCCUCAUGUGUCCUGGUAGCAGGACCGGGACUAGGAUGC = label 0
• GCAUCCUAGUCGGCCGCCACUGACAUGAGGAUCACCCAUGUACAUGAGGAUCACCCAUGUUGUAACAGGACCGGGACUAGGAUGC = label 0
• UUAUAUACUACGGCCGCCACUGAACAUGAGGAUCACCCAUGUAAUGUUCAGAUUUUUUUUUUUUACAGGACCGGGUAGAAUUAAA = label 0
• AGCAACAAGUCGGCCGCCACUCAAUAAACAUGAGGAUCACCCAUGUAAAUAACAUGAUAAUAAUAGAGGACCGGGACAGUUGCAU = label 0
• AUUCAUGGAAACAUGACAUACAUAACCGGUCGAGGACCGGUACGGCCGCCACUCGUUUGGAGGCACAUGAGGAUCACCCAUGUUA = label 0
• CCAUCUUCAUCGGCCGCCACUGAACCAAGGAGACAUGAGGAUCACCCAUGUAUGGGAAACCAUCAUAGGACCGGGAUGAAGGUGG = label 0
• AGCGCGGUGAUGGUAGCCGGACGCUAGGUACGAGGACCGGUACGGCCGCCACUCGGAGUCCUACGACAUGAGGAUCACCCAUGUA = label 0
• GGUUACUCUACGGCCGCCACUGUAAAGUAAAUAUUAAUGUACAUGACAUGAGGAUCACCCAUGUACAGGACCGGGUAGUGUAACC = label 0
• UAAUGCAGGUCGGCCGCCACUACAAACAUGAGGAUCACCCAUGUAGUUACUGGGUGAAGUGGCAGUAGGACCGGGACCUGCAUAA = label 1
• UAACAUGAGGAUCACCCAUGUUUGAAGGAACGAGGACCGGUACGGCCGCCACUCGACGAGUGGAUGAGAAGUGGGAUAGUGUGCU = label 0
• UUAUAUACUACGGCCGCCACUGAACAUGAGGAUCACCCAUGUAAUGUUCAGACGUCUUUAGACGACAGGACCGGGUAGAAUUAAA = label 0
• UGCAUUAUACAUGGAUCACCCAUGUAGACACGAGGACCGGUACGGCCGCCACUCGGAAGAGGAAACAUGAGGAUCACCCAUGUGA = label 0
• AAUCAUGGAAACAUGACAUGAGGAUUACUCCGAGGACCGGUACGGCCGCCACUCGCGAGGAGGCGGACAUGAGGAUCACCCAUGU = label 0
